Each record here notes measured PBM binding z-score.
System: VDR:RXRa (NR concentration 270 nM, RXRa partner concentration 90 nM)
assay_explanation: PBM binding z-score (relative to random genomic background probes); higher = stronger binding; sequences stand for … in GC…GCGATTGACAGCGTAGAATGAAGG
Form: value (number only, do not type unit).

Field: example entries. Status: answers known.
• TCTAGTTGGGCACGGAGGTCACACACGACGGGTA = 4.08
• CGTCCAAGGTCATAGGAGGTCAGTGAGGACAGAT = 7.07
• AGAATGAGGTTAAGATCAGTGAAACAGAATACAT = 1.47

Moving on to another sequence below.
Lab note: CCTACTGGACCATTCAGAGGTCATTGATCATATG gave PBM binding z-score of 3.95

====

Test system: PPARg:RXRa (NR concentration 180 nM, RXRa partner concentration 90 nM)
assay_explanation: PBM binding z-score (relative to random genomic background probes); higher = stronger binding; sequences stand for … in GC…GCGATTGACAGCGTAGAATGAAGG
value_kind: PBM binding z-score
Answer with a number only.

Examples with answers:
- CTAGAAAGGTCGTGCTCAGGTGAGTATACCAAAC: 2.51
- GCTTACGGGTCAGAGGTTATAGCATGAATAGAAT: 9.08
- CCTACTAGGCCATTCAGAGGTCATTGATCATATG: 3.11

Quick note, PBM binding z-score for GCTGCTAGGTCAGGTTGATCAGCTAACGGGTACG landed at 0.663

// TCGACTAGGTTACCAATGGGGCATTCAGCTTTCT : PBM binding z-score value = 0.614

====

PBM binding z-score values by entry
Test system: PPARa:RXRa (NR concentration 270 nM, RXRa partner concentration 90 nM)
assay_explanation: PBM binding z-score (relative to random genomic background probes); higher = stronger binding; sequences stand for … in GC…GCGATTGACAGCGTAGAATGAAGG
Please reply with the value in numeric form only.

Study these solved cases before continuing.
* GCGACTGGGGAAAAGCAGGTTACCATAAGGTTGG | 0.442
* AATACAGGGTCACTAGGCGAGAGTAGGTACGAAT | 5.66
* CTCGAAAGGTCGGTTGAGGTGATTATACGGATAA | 2.79
* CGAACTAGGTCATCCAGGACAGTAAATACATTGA | 4.68
* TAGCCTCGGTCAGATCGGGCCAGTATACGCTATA | -0.586
* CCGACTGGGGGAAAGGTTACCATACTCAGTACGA | 5.42
* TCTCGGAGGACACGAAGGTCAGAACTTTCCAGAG | 1.69
* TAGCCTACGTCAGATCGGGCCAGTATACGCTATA | -0.78
* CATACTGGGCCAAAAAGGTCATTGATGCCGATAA | 4.63
* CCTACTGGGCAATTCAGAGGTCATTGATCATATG | 3.51

According to the records, this sequence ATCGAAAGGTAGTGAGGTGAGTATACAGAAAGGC displays PBM binding z-score of 0.153

Record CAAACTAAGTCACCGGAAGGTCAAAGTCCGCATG . Reported PBM binding z-score: 4.07

# PBM binding z-score (sequence: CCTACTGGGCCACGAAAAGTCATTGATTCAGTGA ) is 0.98

// PBM binding z-score lookup, sequence = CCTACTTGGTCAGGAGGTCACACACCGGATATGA , result: 4.29

Value of PBM binding z-score reported for the sequence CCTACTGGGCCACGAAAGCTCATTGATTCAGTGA is -0.132

PBM binding z-score reported for this sequence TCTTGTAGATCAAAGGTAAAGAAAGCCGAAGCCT : 3.14

====

Quick reference: PBM binding z-score of the listed items.
System: PPARg:RXRa 90nM:30nM, anti-RXR (NR concentration 90 nM, RXRa partner concentration 30 nM)
assay_explanation: PBM binding z-score (relative to random genomic background probes); higher = stronger binding; sequences stand for … in GC…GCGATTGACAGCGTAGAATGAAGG
Hey, just send me the number, nothing else.

Here are 2 sequences together with their reported answers.
* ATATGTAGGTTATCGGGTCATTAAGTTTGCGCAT | 5.71
* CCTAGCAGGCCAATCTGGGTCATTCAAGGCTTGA | 0.958

Noted for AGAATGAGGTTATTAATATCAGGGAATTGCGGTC : its PBM binding z-score reads 1.35

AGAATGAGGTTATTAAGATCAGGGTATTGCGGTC yielded PBM binding z-score of 0.93

Reported PBM binding z-score of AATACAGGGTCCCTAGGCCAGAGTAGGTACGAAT : 0.0597

The sequence identified as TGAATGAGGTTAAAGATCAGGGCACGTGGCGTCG registered its PBM binding z-score at 6.24

The sequence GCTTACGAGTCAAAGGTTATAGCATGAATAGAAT showed PBM binding z-score equal to 6.28

====

Test system: RARb:RXRa (NR concentration 270 nM, RXRa partner concentration 90 nM)
assay_explanation: PBM binding z-score (relative to random genomic background probes); higher = stronger binding; sequences stand for … in GC…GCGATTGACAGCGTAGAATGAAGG
value_kind: PBM binding z-score
Give only the figure.

PBM binding z-score measured on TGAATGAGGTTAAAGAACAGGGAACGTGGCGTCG = 1.95

====

Reported PBM binding z-score by item:
Tested on: RARb:RXRa (NR concentration 270 nM, RXRa partner concentration 90 nM)
assay_explanation: PBM binding z-score (relative to random genomic background probes); higher = stronger binding; sequences stand for … in GC…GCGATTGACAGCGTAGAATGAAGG
Respond using a number only.

Readout PBM binding z-score for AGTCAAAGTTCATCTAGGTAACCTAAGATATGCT , test system RARb:RXRa (NR concentration 270 nM, RXRa partner concentration 90 nM), was 4.88

So the reported PBM binding z-score for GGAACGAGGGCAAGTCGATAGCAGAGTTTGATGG , on RARb:RXRa (NR concentration 270 nM, RXRa partner concentration 90 nM), turned out to be 2.41

Given the sequence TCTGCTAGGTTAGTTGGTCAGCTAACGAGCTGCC and test system RARb:RXRa (NR concentration 270 nM, RXRa partner concentration 90 nM), the measured PBM binding z-score is 0.525

PBM binding z-score value, target or system RARb:RXRa (NR concentration 270 nM, RXRa partner concentration 90 nM), for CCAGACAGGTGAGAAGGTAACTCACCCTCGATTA : 0.764

Hey, RARb:RXRa (NR concentration 270 nM, RXRa partner concentration 90 nM) data for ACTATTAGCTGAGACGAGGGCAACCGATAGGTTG : PBM binding z-score came out at 0.935

Item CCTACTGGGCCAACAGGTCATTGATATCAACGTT ; assay system RARb:RXRa (NR concentration 270 nM, RXRa partner concentration 90 nM); PBM binding z-score reported as 2.12

// PBM binding z-score (RARb:RXRa (NR concentration 270 nM, RXRa partner concentration 90 nM)) for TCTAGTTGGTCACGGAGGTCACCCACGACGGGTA = 3.89

Item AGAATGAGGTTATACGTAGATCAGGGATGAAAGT ; assay system RARb:RXRa (NR concentration 270 nM, RXRa partner concentration 90 nM); PBM binding z-score reported as 1.44

The observed PBM binding z-score for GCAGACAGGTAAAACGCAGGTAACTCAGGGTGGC when tested with RARb:RXRa (NR concentration 270 nM, RXRa partner concentration 90 nM) stands at -0.486

Bench note, RARb:RXRa (NR concentration 270 nM, RXRa partner concentration 90 nM): entry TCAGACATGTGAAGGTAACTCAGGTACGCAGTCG , its PBM binding z-score = 0.199

The measured PBM binding z-score that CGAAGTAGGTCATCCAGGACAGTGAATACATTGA showed for RARb:RXRa (NR concentration 270 nM, RXRa partner concentration 90 nM) is 3.82

PBM binding z-score on RARb:RXRa (NR concentration 270 nM, RXRa partner concentration 90 nM) for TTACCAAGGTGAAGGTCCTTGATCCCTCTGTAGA is 1.75

Measured on RARb:RXRa (NR concentration 270 nM, RXRa partner concentration 90 nM), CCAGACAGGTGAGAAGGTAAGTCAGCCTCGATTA has a documented PBM binding z-score of 0.566

Assay RARb:RXRa (NR concentration 270 nM, RXRa partner concentration 90 nM), sample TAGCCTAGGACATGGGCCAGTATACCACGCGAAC , PBM binding z-score read: 0.0238

====

A collection of sequences and their measured PBM binding z-score
Tested on: PPARg:RXRa IVT, anti-PPARg (NR concentration 270 nM, RXRa partner concentration 90 nM)
assay_explanation: PBM binding z-score (relative to random genomic background probes); higher = stronger binding; sequences stand for … in GC…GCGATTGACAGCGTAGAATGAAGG
Keep the answer to the number alone.

Tested system PPARg:RXRa IVT, anti-PPARg (NR concentration 270 nM, RXRa partner concentration 90 nM); PBM binding z-score recorded for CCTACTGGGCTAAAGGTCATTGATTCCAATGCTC was 6.31

Per the reported PPARg:RXRa IVT, anti-PPARg (NR concentration 270 nM, RXRa partner concentration 90 nM) data, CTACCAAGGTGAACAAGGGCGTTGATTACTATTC has PBM binding z-score of 2.55

Reported PBM binding z-score (PPARg:RXRa IVT, anti-PPARg (NR concentration 270 nM, RXRa partner concentration 90 nM)) for entry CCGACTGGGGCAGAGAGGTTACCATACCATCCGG is 1.91

Reported PPARg:RXRa IVT, anti-PPARg (NR concentration 270 nM, RXRa partner concentration 90 nM) PBM binding z-score for item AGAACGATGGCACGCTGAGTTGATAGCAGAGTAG was -0.274

PPARg:RXRa IVT, anti-PPARg (NR concentration 270 nM, RXRa partner concentration 90 nM) PBM binding z-score of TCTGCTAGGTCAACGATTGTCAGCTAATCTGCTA is 4.13

Record for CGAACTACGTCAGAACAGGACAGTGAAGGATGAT under target or system PPARg:RXRa IVT, anti-PPARg (NR concentration 270 nM, RXRa partner concentration 90 nM): PBM binding z-score reported as -0.508

Summary: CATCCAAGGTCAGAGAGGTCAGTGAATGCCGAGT , PPARg:RXRa IVT, anti-PPARg (NR concentration 270 nM, RXRa partner concentration 90 nM), PBM binding z-score = 3.85

Measured on PPARg:RXRa IVT, anti-PPARg (NR concentration 270 nM, RXRa partner concentration 90 nM), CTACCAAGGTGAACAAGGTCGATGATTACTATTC has a documented PBM binding z-score of 2.64

These data points were gathered from the supplement of paper PMC6555819.
